Cited source: PubChem BioAssay

Some compounds, each annotated with its measured z-score.
experiment: RPMI8226 myeloma cell viability, profiling panel, resazurin fluorescence, basal, 24 h, PK04 Diversity Set (AID 1180); settings: higher = more signal;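 note: RPMI8826 multiple myeloma cell line at 5000 cells per well; test concentration not given here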
Kindly provide the number alone.

Query: Write down z-score measured for item C=CCNC(=O)[C@H]1[C@@H]2C(=O)O[C@@H](c3ccccc3)[C@@H](c3ccccc3)N2[C@@H](c2ccc(OCCO)cc2)[C@]12C(=O)Nc1ccc(C#CCNC(N)=O)cc12
Reply: 0.687

Query: Write down z-score measured for item COc1ccc(C(O)C2C=CC3C(=O)N(c4ccccc4)C(=O)C3N2Nc2ccccc2F)cc1 (stereo not drawn)
Reply: 0.435

Query: Write down z-score measured for item COC(=O)[C@@]1(Cc2ccc(OC)cc2)[C@H]2c3cc(C(=O)N4CCCC4)n(Cc4ccc(OC(F)(F)F)cc4)c3C[C@H]2CN1C(=O)c1ccccc1
Reply: -2.54

Query: Write down z-score measured for item CN1C(=O)C2C(C1=O)C1C=C(CCCO)C2C(C2CC2)N1Cc1cc2c(cc1Br)OCO2 (stereo not drawn)
Reply: -0.543
